The reported numbers originate from paper PMC11866186.

Test system: A549 cell line
method description: MTT assay, A549 cells
Format: cell-based, human
conditions used: MTT, 24 h; read-out: IC50 against A549
parameter measured: IC50 (µM)

compound | observed value
N.N.[Cl][Pt][Cl] [cisplatin, reference compound] | 19.7

---

Test system: A549 cell line
method description: MTT assay, A549 cells
Assay type: cell-based, human
conditions used: Homo sapiens, A549; MTT, 24 h; read-out: IC50 against A549
parameter measured: log10 IC50 (log10 of the value in µM)

structure string | log10 IC50
COc1ccc(-c2nc3ccc(-c4nnc(SCC(=O)c5ccc(F)cc5)o4)cc3[nH]2)cc1 | 1.40
COc1ccc(-c2nc3ccc(-c4nnc(SCC(=O)c5ccc(O)c(O)c5)o4)cc3[nH]2)cc1 | 0.20
COc1ccc(-c2nc3ccc(-c4nnc(SCC(=O)c5ccc(F)cc5F)o4)cc3[nH]2)cc1 | 1.17
COc1ccc(-c2nc3ccc(-c4nnc(SCC(=O)c5ccc(C#N)cc5)o4)cc3[nH]2)cc1 | 1.81
COc1ccc(-c2nc3ccc(-c4nnc(SCC(=O)c5ccc(Cl)cc5Cl)o4)cc3[nH]2)cc1 | -0.52
COc1ccc(-c2nc3ccc(-c4nnc(SCC(=O)c5ccc(Cl)cc5)o4)cc3[nH]2)cc1 | 1.69
COc1ccc(-c2nc3ccc(-c4nnc(SCC(=O)c5ccc(Br)cc5)o4)cc3[nH]2)cc1 | 1.29
O=C(CSc1nnc(-c2ccc3nc(-c4ccc(O)cc4)[nH]c3c2)o1)c1ccc(Cl)cc1Cl | 1.16
O=C(CSc1nnc(-c2ccc3nc(-c4ccc(O)cc4)[nH]c3c2)o1)c1ccc(Cl)cc1 | 0.80
O=C(CSc1nnc(-c2ccc3nc(-c4ccc(O)cc4)[nH]c3c2)o1)c1ccc(F)cc1 | 1.01
O=C(CSc1nnc(-c2ccc3nc(-c4ccc(O)cc4)[nH]c3c2)o1)c1ccc(O)c(O)c1 | 1.32
O=C(CSc1nnc(-c2ccc3nc(-c4ccc(O)cc4)[nH]c3c2)o1)c1ccc(Br)cc1 | 1.98
COc1ccc(-c2nc3ccc(-c4nnc(SCC(=O)c5ccccc5)o4)cc3[nH]2)cc1 | 2.00
N#Cc1ccc(C(=O)CSc2nnc(-c3ccc4nc(-c5ccc(O)cc5)[nH]c4c3)o2)cc1 | 1.71
O=C(CSc1nnc(-c2ccc3nc(-c4ccc(O)cc4)[nH]c3c2)o1)c1ccc(F)cc1F | 1.23
O=C(CSc1nnc(-c2ccc3nc(-c4ccc(O)cc4)[nH]c3c2)o1)c1ccccc1 | 1.80

---

System: PANC-1 cell line
method description: MTT assay, PANC-1 cells
Format: cell-based, human
conditions used: MTT, 24 h; read-out: IC50 against PANC-1
parameter measured: IC50 (µM)

compound | readout units | observed value
N.N.[Cl][Pt][Cl] [cisplatin, reference compound] | µM | 28.8
COc1ccc(-c2nc3ccc(-c4nnc(SCC(=O)c5ccc(O)c(O)c5)o4)cc3[nH]2)cc1 | µM | 6.6

---

Tested on: CCD-19Lu cell line
method description: MTT assay, normal lung CCD-19Lu cells
Format: cell-based
conditions used: CCD 19Lu, normal human lung cells, 24 h, read-out: IC50 against CCD-19Lu
Binary label based on IC50 with cut-off 10 µM: below gives true (1), not below gives false (0).

structure string | label
COc1ccc(-c2nc3ccc(-c4nnc(SCC(=O)c5ccc(F)cc5F)o4)cc3[nH]2)cc1 | false (0)
COc1ccc(-c2nc3ccc(-c4nnc(SCC(=O)c5ccc(O)c(O)c5)o4)cc3[nH]2)cc1 | true (1)
COc1ccc(-c2nc3ccc(-c4nnc(SCC(=O)c5ccc(Cl)cc5)o4)cc3[nH]2)cc1 | false (0)
O=C(CSc1nnc(-c2ccc3nc(-c4ccc(O)cc4)[nH]c3c2)o1)c1ccc(Br)cc1 | false (0)
COc1ccc(-c2nc3ccc(-c4nnc(SCC(=O)c5ccc(C#N)cc5)o4)cc3[nH]2)cc1 | false (0)
COc1ccc(-c2nc3ccc(-c4nnc(SCC(=O)c5ccc(F)cc5)o4)cc3[nH]2)cc1 | false (0)
COc1ccc(-c2nc3ccc(-c4nnc(SCC(=O)c5ccc(Cl)cc5Cl)o4)cc3[nH]2)cc1 | true (1)
O=C(CSc1nnc(-c2ccc3nc(-c4ccc(O)cc4)[nH]c3c2)o1)c1ccc(F)cc1F | false (0)
